meta.source: PubChem BioAssay (NCATS)

Test system: PA-1
Assay: Primary qHTS to identify gynecologic anti-cancer compounds using libraries of approved drugs and bioactive compounds (AID 1345084); also: nearly all actives have a fitted effect of over 55% in size
Conditions: Gynecologic cancer cell panel viability, ATPlite luminescence, 48 h; series mostly up to 57.5 µM
Records with an inconclusive call do not appear. Calls of active or inactive are those of the source. Calls follow the shape of the dose curve; as a rule, active = well fitted cell-killing curve with a large enough effect; inconclusive = small, poorly fitted or top-dose-only effect, or effect the other way; inactive = flat fitted curve, though single readings scatter.
Write down one outcome, taken from active, inactive

Worked examples follow.
{"columns": ["molecule", "assayed-system", "discrete-label"],
 "data": [
  ["COc1cc(Nc2ncc(F)c(Nc3ccc4c(n3)N(COP(=O)(O)O)C(=O)C(C)(C)O4)n2)cc(OC)c1OC", "PA-1", "active"],
  ["Clc1cccc(-c2nnnn2Cc2cccnc2)c1Cl", "PA-1", "inactive"],
  ["COc1cc(C)c(Sc2cnc(NC(=O)c3ccc(CNC(C)C(C)C)cc3)s2)cc1C(=O)N1CCN(C(C)=O)CC1 (stereo not given)", "PA-1", "active"],
  ["CC(C)CC(=O)Nc1n[nH]c2c1CN(C(=O)C1CCN(C)CC1)C2(C)C", "PA-1", "active"]
]}

Alright, here's another molecule for you.
What is the recorded call for this molecule in the test? `Cc1cc(N2CCOCC2)cc2[nH]c(-c3c(NC[C@@H](O)c4cccc(Cl)c4)cc[nH]c3=O)nc12` active

* * *

Experiment: qHTS of pediatric cancer cell lines to identify multiple opportunities for drug repurposing: Confirmatory screen for OHS-50 cells (AID 1347128);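 also: potency is read from the fitted curve at half-maximal effect; compound exposure lasted 48 h at 37 degrees C; nearly all actives have a fitted effect of over 55% in size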
Details: OHS-50 osteosarcoma cells viability; series mostly up to 45.9 µM
Inconclusive results are not listed. Active and inactive are the calls of the source. The call rests on the fitted dose curve; in most records, active means well fitted cell-killing curve with a large enough effect; inconclusive means small, poorly fitted or top-dose-only effect, or effect the other way; inactive means no such curve, though single readings can be large or run the other way.
readout-label: Potency

{"columns": ["smiles-code", "Potency"],
 "data": [
  ["COc1cc2nccc(Oc3ccc(NC(=O)C4(C(=O)Nc5ccc(F)cc5)CC4)cc3)c2cc1OC", "20800 nM (active)"],
  ["Cc1nc(N)ncc1-c1nc(N2CCOCC2)c2sc(C(C)(C)O)cc2n1", "2930 nM (active)"],
  ["C[C@@H](Oc1cc(-n2cnc3ccc(CN4CCN(C)CC4)cc32)sc1C(N)=O)c1ccccc1C(F)(F)F", "75.9 nM (active)"],
  ["CC[C@@H]1C(=O)N(C)c2cnc(Nc3ccc(C(=O)NC4CCN(C)CC4)cc3OC)nc2N1C1CCCC1", "52.2 nM (active)"],
  ["CC(=O)Nc1nc(C)c(-c2ccc(Cl)c(S(=O)(=O)NCCO)c2)s1", "11700 nM (active)"],
  ["COC(=O)[C@]12CCC(C)(C)C[C@@H]1[C@@H]1C(=O)C=C3[C@@]4(C)C=C(C#N)C(=O)C(C)(C)[C@@H]4CC[C@@]3(C)[C@]1(C)CC2", "5220 nM (active)"],
  ["CCn1nnc2c(N3CCOCC3)nc(-c3ccc(NC(=O)Nc4ccc(C(=O)N5CCN(C)CC5)cc4)cc3)nc21", "1170 nM (active)"]
]}

Please find the next compound below.
# lookup: Potency of `C#Cc1cccc(Nc2ncnc3cc(OC)c(OCCCCCCC(=O)NO)cc23)c1` 2400 nM (active)

* * *

Experiment: qHTS of pediatric cancer cell lines to identify multiple opportunities for drug repurposing: Primary screen for RD cells (AID 1347104); also: nearly all actives have a fitted effect of over 55% in size
Settings: RD rhabdomyosarcoma viability, CellTiter-Glo luminescence, 48 h; series mostly up to 46 µM
Records with an inconclusive call do not appear. Activity calls are given as the source filed them. Calls come from the whole dose curve; as a rule, active = well fitted cell-killing curve with a large enough effect; inconclusive = small, poorly fitted or top-dose-only effect; inactive = flat fitted curve, though single readings scatter.
Write down one outcome, taken from label 1 for active, label 0 for inactive

Worked examples follow.
{"columns": ["smiles-code", "discrete-label"],
 "data": [
  ["O=C(O)CCCc1c[nH]c2ccccc12", "label 0"],
  ["Cc1ccc(NC(=O)C2(c3ccc4c(c3)OC(F)(F)O4)CC2)nc1-c1cccc(C(=O)O)c1", "label 1"],
  ["Cc1nc(N)ncc1-c1nc(N2CCOCC2)c2sc(C(C)(C)O)cc2n1", "label 1"]
]}

What is the recorded call for this compound in the test? `C[C@@H]1COC(Nc2ccc3ncnc(Nc4ccc(OCc5nccs5)c(Cl)c4)c3c2)=N1` label 1

And the next one, `O=C(O)c1ccc2cc(-c3ccc(O)c(C45CC6CC(CC(C6)C4)C5)c3)ccc2c1` ? label 1

And the next one, `Nc1nc(-c2nn(Cc3ccccc3F)c3ncccc23)nc(N)c1N1CCOCC1` ? label 0

And the next one, `CCS(=O)(=O)c1cccc(-c2cc(C(=O)NC3CCN(C)CC3)c(C)c3[nH]c4ncc(C)cc4c23)c1` ? label 1

And the next one, `CC(C)CC(=O)Nc1n[nH]c2c1CN(C(=O)C1CCN(C)CC1)C2(C)C` ? label 1

And the next one, `O=C(CCCCCCNC(=O)c1cnc(N(c2ccccc2)c2ccccc2)nc1)NO` ? label 1

And the next one, `Cc1ccc(-c2ncn(-c3ccc(Nc4nccc(-c5cccc(N6CCOCC6)c5)n4)cc3)n2)cn1` ? label 1

And the next one, `O=C(NCCCNc1nc(Nc2cccc(NC(=O)N3CCCC3)c2)ncc1I)c1cccs1` ? label 1
